Hello, the source for this data is patent US20180355059A1, in case you need it.

# experimental.target: T1, recombinant human PCSK9-His protein (Immunogen A) (human, UniProt Q8NBP7 31-692, limits assumed, biotinylated in the ELISA assays)
# T1 construct: also called hPCSK9-His; His-tagged hPCSK9; not shown: His tag
# experiment.notes: ELISA of PCSK9 binding to LDLR ECD; antibody 0 nM
Measured OD450 nm, listed per entry for reference.
Response body: numeric value in OD450 nm, unit text excluded.

Consider the following illustrative entries.
// query Query: OD450 nm; subject: 74C10A8, fully human anti-PCSK9 antibody (antibody, human IgG1, V domains shown) VH: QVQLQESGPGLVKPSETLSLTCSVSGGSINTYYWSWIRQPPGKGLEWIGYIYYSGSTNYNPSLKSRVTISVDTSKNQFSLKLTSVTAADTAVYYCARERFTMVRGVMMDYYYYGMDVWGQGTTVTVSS VL: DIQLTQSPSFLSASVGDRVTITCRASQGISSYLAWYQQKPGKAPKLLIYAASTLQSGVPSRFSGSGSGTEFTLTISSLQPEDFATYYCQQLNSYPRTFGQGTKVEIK
// result 2.4

// query Given the entry 139G1C5, fully human anti-PCSK9 antibody (antibody, human IgG1, V domains shown) VH: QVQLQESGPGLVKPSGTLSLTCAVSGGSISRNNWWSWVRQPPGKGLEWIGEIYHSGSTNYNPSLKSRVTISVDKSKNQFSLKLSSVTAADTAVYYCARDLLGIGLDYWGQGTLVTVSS VL: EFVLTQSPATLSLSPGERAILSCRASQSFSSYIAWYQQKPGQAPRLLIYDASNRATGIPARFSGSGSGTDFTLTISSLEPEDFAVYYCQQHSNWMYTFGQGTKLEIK , report its measured OD450 nm.
// result 2.31

More entries:
// query Look up OD450 nm: 152G2F7, fully human anti-PCSK9 antibody (antibody, human IgG1, V domains shown) VH: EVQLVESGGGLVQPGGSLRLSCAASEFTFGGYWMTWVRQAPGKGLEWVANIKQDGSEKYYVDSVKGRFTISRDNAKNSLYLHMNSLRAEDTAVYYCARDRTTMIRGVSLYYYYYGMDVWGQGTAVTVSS VL: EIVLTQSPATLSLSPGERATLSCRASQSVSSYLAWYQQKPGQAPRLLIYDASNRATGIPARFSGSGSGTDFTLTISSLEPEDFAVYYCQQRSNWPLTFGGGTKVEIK
// result 2.29

// query // lookup OD450 nm for 76A1B11, fully human anti-PCSK9 antibody (antibody, human IgG1, V domains shown) VH: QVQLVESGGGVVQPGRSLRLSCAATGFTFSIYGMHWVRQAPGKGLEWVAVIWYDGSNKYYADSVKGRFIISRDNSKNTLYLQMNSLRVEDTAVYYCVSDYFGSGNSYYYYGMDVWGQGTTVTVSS VL: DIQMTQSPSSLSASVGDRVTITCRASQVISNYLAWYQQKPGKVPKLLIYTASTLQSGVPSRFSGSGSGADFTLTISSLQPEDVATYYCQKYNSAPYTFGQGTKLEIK
// result 2.38
